Listed below: pIC50 values for each entry.
Tested System: SIK3 (Homo sapiens, UniProt Q9Y2K2)
Construct: purchased SignalChem S12-11G-100
Sequence (Q9Y2K2 whole entry): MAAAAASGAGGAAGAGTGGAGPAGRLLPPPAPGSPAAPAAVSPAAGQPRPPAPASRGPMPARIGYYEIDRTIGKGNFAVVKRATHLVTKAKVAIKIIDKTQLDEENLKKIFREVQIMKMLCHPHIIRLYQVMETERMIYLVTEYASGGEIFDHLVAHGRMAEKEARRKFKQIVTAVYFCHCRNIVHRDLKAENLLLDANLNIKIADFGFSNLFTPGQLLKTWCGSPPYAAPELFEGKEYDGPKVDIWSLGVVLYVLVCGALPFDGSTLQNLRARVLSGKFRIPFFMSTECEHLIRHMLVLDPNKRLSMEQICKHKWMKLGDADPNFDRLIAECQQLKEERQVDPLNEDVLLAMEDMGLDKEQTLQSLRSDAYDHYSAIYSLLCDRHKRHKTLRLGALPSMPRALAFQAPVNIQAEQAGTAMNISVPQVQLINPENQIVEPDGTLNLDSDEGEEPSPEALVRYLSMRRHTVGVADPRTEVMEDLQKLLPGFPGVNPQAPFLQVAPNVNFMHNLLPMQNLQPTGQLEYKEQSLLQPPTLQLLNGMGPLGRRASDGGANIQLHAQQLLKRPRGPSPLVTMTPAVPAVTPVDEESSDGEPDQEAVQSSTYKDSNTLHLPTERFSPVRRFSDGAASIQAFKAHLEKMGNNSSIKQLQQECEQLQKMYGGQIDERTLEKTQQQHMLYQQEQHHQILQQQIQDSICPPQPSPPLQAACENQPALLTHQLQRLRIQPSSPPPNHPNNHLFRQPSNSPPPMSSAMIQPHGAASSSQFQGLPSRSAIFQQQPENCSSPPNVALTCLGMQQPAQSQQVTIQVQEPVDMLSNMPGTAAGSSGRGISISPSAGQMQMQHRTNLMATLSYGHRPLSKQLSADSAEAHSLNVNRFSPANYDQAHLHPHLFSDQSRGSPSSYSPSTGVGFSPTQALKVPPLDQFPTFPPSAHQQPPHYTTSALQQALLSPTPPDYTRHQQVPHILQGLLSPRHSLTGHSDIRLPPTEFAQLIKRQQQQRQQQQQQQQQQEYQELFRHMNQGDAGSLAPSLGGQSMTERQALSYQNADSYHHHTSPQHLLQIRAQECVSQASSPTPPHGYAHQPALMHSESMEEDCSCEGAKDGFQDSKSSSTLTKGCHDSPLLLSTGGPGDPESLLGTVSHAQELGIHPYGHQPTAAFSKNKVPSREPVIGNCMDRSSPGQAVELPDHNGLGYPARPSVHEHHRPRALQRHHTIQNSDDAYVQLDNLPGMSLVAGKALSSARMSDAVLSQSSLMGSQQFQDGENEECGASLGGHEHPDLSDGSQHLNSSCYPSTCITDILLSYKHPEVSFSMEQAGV
Test Method Notes: biochemical
Measurement Setup: ADP-Glo SIK kinase assay
pIC50: −log10 of the molar value.

# Molecule, pIC50
rows = [
    ("COc1cc(-c2cnc3cc(-c4cnn(C)c4)c(OCC(=O)O)cn23)cc(OC(F)F)c1C(=O)NC1CC1 [Cpd 299]", "7.00 to 8.00"),
    ("CCN(CC)CCOC(=O)C(C)(C)n1cc(-c2ccn3c(-c4cc(OC)c(C(=O)NCC(F)(F)F)c(OC)c4)cnc3c2)cn1 [Cpd 305]", "8.00 to 11.00"),
    ("CNc1cc(-c2cnc3cc(-c4cnn(C)c4)ccn23)cc(OC)c1C(=O)NCC(F)(F)F [Cpd 204]", "8.00 to 11.00"),
]

Now examine the next entry.
# pIC50 of COc1cc(-c2cnc3cc(-c4cnn(C)c4)ccn23)cc(OC)c1C(=O)N1CC(C(F)(F)F)C1 [compound 213] = 8.00 to 11.00

* * *

Listed below: IC50 values for each entry.
Tested System: SIK2 (Homo sapiens)
Construct: purchased ThermoFisher Scientific PV4792
Test Method Notes: biochemical
Measurement Setup: 33P radioactive SIK kinase assay, AMARA peptide, 10 μM ATP

# Molecule, Tested System, Parameter Measured, Result Value
data = [
    ("COc1cc(-n2cnc3cc(-c4cnn(C)c4)ccc32)cc(OC)c1C(=O)NCCS(C)(=O)=O", "SIK2 (Homo sapiens)", "IC50", "10 to 100 nM"),
    ("COc1cc(-n2cnc3cc(-c4cnn(C)c4)ccc32)cc(OC)c1C(=O)N1C(C)CC1(C)C (centres unmarked)", "SIK2 (Homo sapiens)", "IC50", "> 500 nM"),
    ("COc1cc(-n2cnc3cc(-c4cnn(C)c4)ccc32)cc(OC)c1C(=O)N1CC(CO)C1", "SIK2 (Homo sapiens)", "IC50", "100 to 500 nM"),
    ("COc1cc(-n2cnc3cc(-n4nc(C)cc4C)ccc32)cc(OC)c1C(=O)NCC(F)(F)F", "SIK2 (Homo sapiens)", "IC50", "> 500 nM"),
    ("CCNC(=O)c1c(OC)cc(-n2cnc3cc(-c4noc(C)n4)ccc32)cc1OC(F)F", "SIK2 (Homo sapiens)", "IC50", "> 500 nM"),
]

# IC50 of COc1cc(-c2cnc3cc(-c4cncnc4)ccn23)cc(OC)c1C(=O)NCC(F)(F)F = 100 to 500 nM

# IC50 of COc1cc(-c2cnc3cc(-c4cnn(C)c4)ccn23)cc(OC)c1C(=O)N1CCC(F)(F)CC1 = 10 to 100 nM

# IC50 of COc1cc(-n2cnc3cc(-c4cnn(C)c4)ccc32)cc(OC)c1C(=O)N1C(C)CC1C (centres unmarked) = > 500 nM

* * *

Tested System: SIK1 (Homo sapiens, UniProt P57059)
Construct: purchased Carna Biosciences 02-131
Sequence (P57059 whole entry): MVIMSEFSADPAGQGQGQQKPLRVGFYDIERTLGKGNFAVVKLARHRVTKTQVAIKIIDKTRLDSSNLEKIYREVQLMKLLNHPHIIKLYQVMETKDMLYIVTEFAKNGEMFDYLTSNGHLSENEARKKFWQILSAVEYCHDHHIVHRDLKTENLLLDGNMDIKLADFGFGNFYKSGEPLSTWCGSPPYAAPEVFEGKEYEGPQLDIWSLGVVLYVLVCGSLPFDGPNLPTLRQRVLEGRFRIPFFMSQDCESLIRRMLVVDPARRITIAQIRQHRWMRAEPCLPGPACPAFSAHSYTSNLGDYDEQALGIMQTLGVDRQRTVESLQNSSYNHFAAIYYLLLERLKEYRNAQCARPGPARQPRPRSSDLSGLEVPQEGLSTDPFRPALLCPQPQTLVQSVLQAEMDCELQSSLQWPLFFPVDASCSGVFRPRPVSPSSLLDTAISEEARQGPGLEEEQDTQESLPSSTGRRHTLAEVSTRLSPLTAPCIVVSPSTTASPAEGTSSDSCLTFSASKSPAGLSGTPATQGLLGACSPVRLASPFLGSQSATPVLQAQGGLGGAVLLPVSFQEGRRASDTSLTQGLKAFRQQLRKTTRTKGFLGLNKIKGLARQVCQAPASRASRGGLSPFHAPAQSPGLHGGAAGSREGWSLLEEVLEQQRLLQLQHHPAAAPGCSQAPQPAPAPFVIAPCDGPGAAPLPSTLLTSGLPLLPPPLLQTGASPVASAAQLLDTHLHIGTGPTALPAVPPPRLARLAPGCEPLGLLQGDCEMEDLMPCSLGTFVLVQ
Test Method Notes: biochemical
Measurement Setup: 33P radioactive SIK kinase assay, AMARA peptide, 10 μM ATP; read-out: SIK1 IC50
pIC50: −log10 of the molar value.
Parameter Measured: pIC50

Note to self: pIC50 of COc1cc(-c2cnc3cc(-c4cnn(C)c4)ccn23)cc(OC)c1C(=O)N[C@H]1CC[C@@H]1O with SIK1 (Homo sapiens, UniProt P57059) was 7.00 to 8.00

Note to self: pIC50 of COc1cc(-n2cnc3cc(-n4cnc(C)c4)ccc32)cc(OC)c1C(=O)NCC(F)(F)F with SIK1 (Homo sapiens, UniProt P57059) was 6.30 to 7.00

Note to self: pIC50 of COc1cc(-n2cnc3cc(-c4cnn(C)c4)ccc32)cc(OC)c1C(=O)N1CC(F)(F)C1 with SIK1 (Homo sapiens, UniProt P57059) was 7.00 to 8.00

Note to self: pIC50 of COc1cc(-c2cnc3cc(-c4cnn(C)c4)ccn23)cc(F)c1C(=O)NCC(F)(F)F with SIK1 (Homo sapiens, UniProt P57059) was 7.00 to 8.00

* * *

Listed below: IC50 values for each entry.
Tested System: SIK1 (Homo sapiens, UniProt P57059)
Construct: purchased Carna Biosciences 02-131
Test Method Notes: biochemical
Measurement Setup: ADP-Glo SIK kinase assay

Please review the following examples before continuing.
# Compound, Parameter Measured, Result Value
rows = [
    ("COc1ccc(-c2ccn3c(-c4cc(OC)c(C(=O)NC5CC5)c(OC(F)F)c4)cnc3c2)nn1 [compound 280]", "IC50", "0.01 to 10 nM"),
    ("CCN1Cc2cc(-c3cnc4cc(-c5cnn(C)c5)ccn34)cc(NCCO)c2C1=O [compound 201]", "IC50", "100 to 500 nM"),
    ("CCOC(=O)C(C)n1cc(-c2ccn3c(-c4cc(OC)c(C(=O)NCC(F)(F)F)c(OC)c4)cnc3c2)cn1 (stereo not shown) [compound 263]", "IC50", "0.01 to 10 nM"),
    ("COc1cc(-c2cnc3cc(-c4ccc(N(C)C)nn4)ccn23)cc(OC(F)F)c1C(=O)NC1CC1 [compound 283]", "IC50", "0.01 to 10 nM"),
    ("COc1cc(-c2cnc3cc(-c4cnn(C)c4)ccn23)cc(OC)c1C(=O)N1CC(F)(F)C1 [Cpd 173]", "IC50", "0.01 to 10 nM"),
]

Now examine the next entry.
# IC50 of COc1ccc(-c2ccn3c(-c4cc(OC)c(C(=O)NC5CC5)c(OC(F)F)c4)cnc3c2)cn1 [compound 267] = 0.01 to 10 nM

* * *

Tested System: SIK2 (Homo sapiens, UniProt Q9H0K1)
Construct: purchased ThermoFisher Scientific PV4792
Sequence (Q9H0K1 whole entry): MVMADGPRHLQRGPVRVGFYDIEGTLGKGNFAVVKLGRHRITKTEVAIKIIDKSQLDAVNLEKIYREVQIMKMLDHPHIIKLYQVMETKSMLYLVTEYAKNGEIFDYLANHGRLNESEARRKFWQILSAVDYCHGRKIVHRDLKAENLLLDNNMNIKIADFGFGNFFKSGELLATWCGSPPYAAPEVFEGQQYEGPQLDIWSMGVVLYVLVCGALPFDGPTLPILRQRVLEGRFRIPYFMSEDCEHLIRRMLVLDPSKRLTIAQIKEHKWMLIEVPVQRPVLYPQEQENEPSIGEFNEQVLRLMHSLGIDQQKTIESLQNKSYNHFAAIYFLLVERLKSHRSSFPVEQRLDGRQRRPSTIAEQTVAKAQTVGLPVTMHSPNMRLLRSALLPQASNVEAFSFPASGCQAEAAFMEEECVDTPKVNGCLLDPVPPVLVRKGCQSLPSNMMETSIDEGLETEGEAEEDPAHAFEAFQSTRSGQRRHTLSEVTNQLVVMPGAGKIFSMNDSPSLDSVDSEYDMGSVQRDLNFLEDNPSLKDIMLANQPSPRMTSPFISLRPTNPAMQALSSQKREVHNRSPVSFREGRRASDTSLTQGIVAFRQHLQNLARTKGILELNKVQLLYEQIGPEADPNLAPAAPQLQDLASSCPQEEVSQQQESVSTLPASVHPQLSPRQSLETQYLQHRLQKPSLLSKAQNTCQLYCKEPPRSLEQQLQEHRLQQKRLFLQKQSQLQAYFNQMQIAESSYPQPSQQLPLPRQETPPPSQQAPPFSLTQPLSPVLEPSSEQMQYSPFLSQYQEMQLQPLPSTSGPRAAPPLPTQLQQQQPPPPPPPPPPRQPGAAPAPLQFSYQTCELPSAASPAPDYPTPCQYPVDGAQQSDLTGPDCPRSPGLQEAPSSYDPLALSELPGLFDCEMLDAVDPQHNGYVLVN
Test Method Notes: biochemical
Measurement Setup: 33P radioactive SIK kinase assay, AMARA peptide, 10 μM ATP
pIC50: −log10 of the molar value.
Parameter Measured: pIC50

Please review the following examples before continuing.
# Molecule, pIC50
data = [
    ("COc1cc(-c2cnc3cc(-c4cnn(CC(=O)O)c4)ccn23)cc(OC)c1C(=O)NCC(F)(F)F", "8.00 to 11.00"),
    ("CCN1Cc2cc(-n3cnc4cc(-c5cnn(C)c5)ccc43)cc(F)c2C1=O", "6.30 to 7.00"),
    ("COc1cc(-n2cnc3cc(-c4cnn(C)c4)ccc32)cc(OC)c1C(=O)N1CCC1", "6.30 to 7.00"),
]

# pIC50 of COc1cc(-n2cnc3cc(-c4nccn4C)ccc32)cc(OC)c1C(=O)NCC(F)(F)F = 7.00 to 8.00

# pIC50 of COc1cc(-n2cnc3cc(-n4cnc(C)n4)ccc32)cc(OC)c1C(=O)NCC(F)(F)F = < 6.30

# pIC50 of COc1cc(-c2cnc3cc(-c4cnccc4C#N)ccn23)cc(OC)c1C(=O)NCC(F)(F)F = < 6.30

# pIC50 of COc1cc(-n2cnc3cc(-c4cnn(CC5CCCO5)c4)ccc32)cc(OC)c1C(=O)NCC(F)(F)F (stereo not shown) = 8.00 to 11.00

# pIC50 of COc1cc(-n2cnc3cc(-c4cnn(C)c4)ccc32)cc(OC)c1C(=O)N1CC(c2ccccc2)C1 = 6.30 to 7.00

* * *

Tested System: SIK1 (Homo sapiens, UniProt P57059)
Construct: purchased Carna Biosciences 02-131
Test Method Notes: biochemical
Measurement Setup: 33P radioactive SIK kinase assay, AMARA peptide, 10 μM ATP; read-out: SIK1 IC50
pIC50: −log10 of the molar value.
Listed below: pIC50 values for each entry.

Please review the following examples before continuing.
# Molecule, Result Value
records = [
    ("COc1cc(-c2cnc3cc(-c4cnn(C)c4)ccn23)cc(OC)c1C(=O)N1CC(C#N)C1", "8.00 to 11.00"),
    ("COc1cc(-n2cnc3cc(-c4cnn(C5CN(CC#N)C5)c4)ccc32)cc(OC)c1C(=O)NCC(F)(F)F", "7.00 to 8.00"),
    ("COC(=O)C(C)n1cc(-c2ccn3c(-c4cc(OC)c(C(=O)NCC(F)(F)F)c(OC)c4)cnc3c2)cn1 (stereo not drawn)", "8.00 to 11.00"),
    ("COc1cc(-n2cnc3cc(-c4cnn(C)c4)ccc32)cc(OC)c1C(=O)N1CCC1c1ccccc1 (stereo not drawn)", "< 6.30"),
]

# pIC50 of COc1cc(-c2cnc3cc(-c4cnn(C)c4)ccn23)cc(OC(F)F)c1C(=O)NC1CC1 = 8.00 to 11.00

# pIC50 of COc1cc(-n2cnc3cc(-c4cnn(C)c4)ccc32)cc(OC)c1C(=O)N[C@@H]1C[C@H]1CO = 7.00 to 8.00

# pIC50 of CCNC(=O)c1c(OC)cc(-c2cnc3cc(-c4cnn(C5CCN(C(=O)OC(C)(C)C)CC5)c4)ccn23)cc1OC(F)F = 8.00 to 11.00

# pIC50 of COc1cc(-n2cnc3cc(-c4cnn(C)c4)ccc32)cc(OC)c1C(=O)N1CC(C)(C)C1 = 7.00 to 8.00

# pIC50 of CCN1Cc2cc(-n3cnc4cc(-c5cnn(C)c5)ccc43)cc(NCCO)c2C1=O = 6.30 to 7.00

# pIC50 of COCCn1cc(-c2ccc3c(c2)ncn3-c2cc(OC)c(C(=O)NCC(F)(F)F)c(OC)c2)cn1 = 7.00 to 8.00

# pIC50 of CCNC(=O)c1c(OC)cc(-c2cnc3cc(-c4cn(C)cn4)ccn23)cc1OC(F)F = 7.00 to 8.00

# pIC50 of COc1cc(-n2cnc3cc(-c4cc(C)n[nH]4)ccc32)cc(OC)c1C(=O)NCC(F)(F)F = 7.00 to 8.00

# pIC50 of COc1cc(-c2cnc3cc(-c4cnc(N)nc4)ccn23)cc(OC)c1C(=O)NCC(F)(F)F = 7.00 to 8.00

# pIC50 of COc1cncc(-c2ccc3c(c2)ncn3-c2cc(OC)c(C(=O)NCC(F)(F)F)c(OC)c2)c1 = 6.30 to 7.00

# pIC50 of CCNC(=O)c1c(OC)cc(-c2cnc3cc(-c4ccc(C#N)nc4)ccn23)cc1OC(F)F = 6.30 to 7.00
